Taken from the supplement of paper PMC4121296.

# maps each entry to its body length at 72 hpf
test system: Danio rerio embryo (fli1:egfp); assay: body length at 72 hpf (µm); higher = longer body (less growth inhibition); conditions: 25 µM; exposure: 5-72 hpf
Note: the reply should be a number with no unit written.

C#CCN1C(=O)COc2cc(F)c(N3C(=O)C4=C(CCCC4)C3=O)cc21 :: 2920
CCN(Cc1c(F)cccc1Cl)c1c([N+](=O)[O-])cc(C(F)(F)F)cc1[N+](=O)[O-] :: 2670
CC(C)[C@H](C(=O)O[C@H](C#N)c1cccc(Oc2ccccc2)c1)c1ccc(Cl)cc1 [Esfenvalerate] :: 2640
CC(C)Oc1cc(-n2nc(C(C)(C)C)oc2=O)c(Cl)cc1Cl :: 2960
O=C(O)c1cc(Oc2ccc(C(F)(F)F)cc2Cl)ccc1[N+](=O)[O-] :: 2960

**Query** Param item = "Cc1nn(-c2cc(NS(C)(=O)=O)c(Cl)cc2Cl)c(=O)n1C(F)F" ; retrieve measured body length at 72 hpf.
**Result** 2970

**Query** Please do the same for "CCOC(=O)COc1cc(-c2nn(C)c(OC(F)F)c2Cl)c(F)cc1Cl" as well.
**Result** 2790

**Query** Same question, "CCOc1cc(Oc2ccc(C(F)(F)F)cc2Cl)ccc1[N+](=O)[O-]" this time
**Result** 2660

###

test system: Danio rerio embryo (fli1:egfp); assay: body length at 72 hpf (µm); higher = longer body (less growth inhibition); settings: 50 µM; exposure: 5-72 hpf
measured_endpoint: body length at 72 hpf
Please reply with the value in numeric form only.

Please review the following examples before continuing.
CCN(Cc1c(F)cccc1Cl)c1c([N+](=O)[O-])cc(C(F)(F)F)cc1[N+](=O)[O-] [Flumetralin] :: 2620
C#CCN1C(=O)COc2cc(F)c(N3C(=O)C4=C(CCCC4)C3=O)cc21 [Flumioxazin] :: 2920
O=C(O)c1cc(Oc2ccc(C(F)(F)F)cc2Cl)ccc1[N+](=O)[O-] [Acifluorfen] :: 2980
CC(C)[C@H](C(=O)O[C@H](C#N)c1cccc(Oc2ccccc2)c1)c1ccc(Cl)cc1 [Esfenvalerate] :: 2750

Then this compound:
**Query** Please provide the recorded body length at 72 hpf for Cc1nn(-c2cc(NS(C)(=O)=O)c(Cl)cc2Cl)c(=O)n1C(F)F [Sulfentrazone] , tested on Danio rerio embryo (fli1:egfp).
**Result** 2950

###

test system: Danio rerio embryo (fli1:egfp); experiment: body length at 72 hpf (µm); higher = longer body (less growth inhibition); conditions: 0.05 µM; exposure: 5-72 hpf
measured_endpoint: body length at 72 hpf
Output spec: single numeric token, no unit.

These recorded examples may help you get a feel for the data.
CCOc1cc(Oc2ccc(C(F)(F)F)cc2Cl)ccc1[N+](=O)[O-] :: 3020
CC1(C)C(C(=O)OC(C#N)c2cccc(Oc3ccccc3)c2)C1(C)C (centres undefined) :: 2970
CCN(Cc1c(F)cccc1Cl)c1c([N+](=O)[O-])cc(C(F)(F)F)cc1[N+](=O)[O-] :: 3020

**Query** Which body length at 72 hpf is reported with Danio rerio embryo (fli1:egfp) for this entry: CC(C)[C@H](C(=O)O[C@H](C#N)c1cccc(Oc2ccccc2)c1)c1ccc(Cl)cc1 [Esfenvalerate] ?
**Result** 3070

###

tested on: Danio rerio embryo (fli1:egfp); assay: pericardial area at 72 hpf (image area units (not stated)); higher = larger pericardial area (edema); settings: 0.78 µM; exposure: 5-72 hpf
Below, each of the compounds is paired with its reported pericardial area at 72 hpf value.
Returns: the value as a bare number; no unit string appended.

Study these solved cases before continuing.
CO/N=C(/C1=NOCCO1)c1ccccc1Oc1ncnc(Oc2ccccc2Cl)c1F [Fluoxastrobin] :: 13900
CO/N=C(/C(=O)OC)c1ccccc1CO/N=C(\C)c1cccc(C(F)(F)F)c1 [Trifloxystrobin] :: 13900
CC1(C)C(C(=O)OC(C#N)c2cccc(Oc3ccccc3)c2)C1(C)C (centres undefined) [Fenpropathrin] :: 13200

**Query** Kindly state the measured pericardial area at 72 hpf obtained for C#CCN1C(=O)COc2cc(F)c(N3C(=O)C4=C(CCCC4)C3=O)cc21 [Flumioxazin] with Danio rerio embryo (fli1:egfp).
**Result** 23000

###

test system: Danio rerio embryo (fli1:egfp); assay: body length at 72 hpf (µm); higher = longer body (less growth inhibition); settings: 0.098 µM; exposure: 5-72 hpf
Here, each record is paired with measured body length at 72 hpf data.
A bare number is all that is needed in reply.

Some compounds with recorded body length at 72 hpf:
CCCCSP(=O)(SCCCC)SCCCC [Tribufos] :: 2950
CCOC(=O)C(Cl)Cc1cc(-n2nc(C)n(C(F)F)c2=O)c(F)cc1Cl (stereo unspecified) [Carfentrazone-ethyl] :: 2970
C[C@@]1(c2ccc(Oc3ccccc3)cc2)OC(=O)N(Nc2ccccc2)C1=O (racemic) [Famoxadone] :: 2990
CCOC(=O)COc1cc(-n2ncc(C(F)(F)F)c(C)c2=O)c(F)cc1Cl [Flufenpyr-ethyl] :: 3000
Cc1nn(-c2cc(NS(C)(=O)=O)c(Cl)cc2Cl)c(=O)n1C(F)F [Sulfentrazone] :: 2990

// below: body length at 72 hpf requested for another compound
**Query** Data request, read-out body length at 72 hpf, for C#CCN1C(=O)COc2cc(F)c(N3C(=O)C4=C(CCCC4)C3=O)cc21 [Flumioxazin]
**Result** 2970

###

tested on: Danio rerio embryo (fli1:egfp); experiment: intersegmental vessel area normalized to body length at 72 hpf (ISV area / body length (normalized units)); higher = more vessel area; conditions: 0.78 µM; exposure: 5-72 hpf
Mark MET for reported intersegmental vessel area normalized of 80 or greater; mark NOT MET for anything smaller.

# example entries with known answers
CC(C)[C@H](C(=O)O[C@H](C#N)c1cccc(Oc2ccccc2)c1)c1ccc(Cl)cc1 [Esfenvalerate] :: NOT MET
CCc1nn(C)c(C(=O)NCc2ccc(C(C)(C)C)cc2)c1Cl :: NOT MET
CO/N=C(/C(=O)OC)c1ccccc1CO/N=C(\C)c1cccc(C(F)(F)F)c1 :: NOT MET
CCOC(=O)COc1cc(-n2ncc(C(F)(F)F)c(C)c2=O)c(F)cc1Cl :: NOT MET
CCOC(=O)C(C)OC(=O)c1cc(Oc2ccc(C(F)(F)F)cc2Cl)ccc1[N+](=O)[O-] (configuration not stated) :: MET

**Query** Item "CCCCCOC(=O)COc1cc(N2C(=O)C3=C(CCCC3)C2=O)c(F)cc1Cl" with intersegmental vessel area normalized of 80 or above?
**Result** NOT MET

**Query** Then what about the compound "C#CCN1C(=O)COc2cc(F)c(N3C(=O)C4=C(CCCC4)C3=O)cc21" ?
**Result** NOT MET

**Query** Thanks! And "CCOc1cc(Oc2ccc(C(F)(F)F)cc2Cl)ccc1[N+](=O)[O-]" ?
**Result** MET

**Query** Param item: "C#CCOC(=O)[C@@H](C)Oc1ccc(Oc2ncc(Cl)cc2F)cc1"
**Result** NOT MET

**Query** Field entry: "CCN(Cc1c(F)cccc1Cl)c1c([N+](=O)[O-])cc(C(F)(F)F)cc1[N+](=O)[O-]"
**Result** NOT MET

**Query** Input "O=C(O)c1cc(Oc2ccc(C(F)(F)F)cc2Cl)ccc1[N+](=O)[O-]"
**Result** MET

**Query** Now this one: CCOC(=O)C(Cl)Cc1cc(-n2nc(C)n(C(F)F)c2=O)c(F)cc1Cl (configuration not stated)
**Result** NOT MET

**Query** Input "CCCCSP(=O)(SCCCC)SCCCC"
**Result** MET

###

tested on: Danio rerio embryo (fli1:egfp); assay: arterial (dorsal aorta) circulation score at 72 hpf (normalized DA-Max (arbitrary units)); higher = more circulation; details: 25 µM; exposure: 5-72 hpf
Label false if arterial falls below 10; label true in every other case.

Record excerpt, results attached:
CC(C)Oc1cc(-n2nc(C(C)(C)C)oc2=O)c(Cl)cc1Cl [Oxadiazon] :: false
Cc1nn(-c2cc(NS(C)(=O)=O)c(Cl)cc2Cl)c(=O)n1C(F)F [Sulfentrazone] :: true
O=C(O)c1cc(Oc2ccc(C(F)(F)F)cc2Cl)ccc1[N+](=O)[O-] [Acifluorfen] :: true
CCOC(=O)COc1cc(-c2nn(C)c(OC(F)F)c2Cl)c(F)cc1Cl [Pyraflufen-ethyl] :: false

Switching to the query record.
**Query** Confirm if arterial reported for the molecule C#CCN1C(=O)COc2cc(F)c(N3C(=O)C4=C(CCCC4)C3=O)cc21 [Flumioxazin] is 10 or above.
**Result** false

###

body length at 72 hpf values by entry
test system: Danio rerio embryo (fli1:egfp); test: body length at 72 hpf (µm); higher = longer body (less growth inhibition); conditions: 0.098 µM; exposure: 5-72 hpf
# output: bare number, no unit

Known body length at 72 hpf results, listed for orientation:
CCOC(=O)C(C)OC(=O)c1cc(Oc2ccc(C(F)(F)F)cc2Cl)ccc1[N+](=O)[O-] (configuration not stated) :: 3000
C#CCOC(=O)[C@@H](C)Oc1ccc(Oc2ncc(Cl)cc2F)cc1 :: 2960
CO/N=C(/C1=NOCCO1)c1ccccc1Oc1ncnc(Oc2ccccc2Cl)c1F :: 2980
CCCCCOC(=O)COc1cc(N2C(=O)C3=C(CCCC3)C2=O)c(F)cc1Cl :: 2980
CC1(C)C(C=C(Cl)Cl)C1C(=O)OC(C#N)c1ccc(F)c(Oc2ccccc2)c1 (configuration not stated) :: 3040

**Query** Look at this compound and give its reported body length at 72 hpf. CC1(C)C(C(=O)OC(C#N)c2cccc(Oc3ccccc3)c2)C1(C)C (configuration not stated)
**Result** 2950

**Query** Cool, now "N#Cc1c(Cl)c(Cl)c(Cl)c(C#N)c1Cl"
**Result** 2990

**Query** Please answer likewise for "CC(C)Oc1cc(-n2nc(C(C)(C)C)oc2=O)c(Cl)cc1Cl"
**Result** 3060
